Please go through the items and note down their melting point.
Give bare numbers, in °C.

{"columns": ["Compound", "melting point [°C]"],
 "data": [
  ["CC[C@H]1OC(=O)[C@H](C)[C@@H](O[C@@H]2C[C@](C)(OC)[C@H](O)C(C)O2)[C@H](C)[C@@H](O[C@@H]2O[C@H](C)C[C@@H](N(C)C)[C@H]2O)[C@](C)(O)C[C@@H](C)CN(CCCNC(=O)[C@@]2(O)[C@H](C)CC3C4C[C@H](F)C5=CC(=O)C=C[C@]5(C)[C@@]4(F)[C@@H](O)C[C@@]32C)[C@H](C)[C@@H](O)[C@]1(C)O (stereo partly drawn)", 169]
]}

Find the measured melting point of CC[C@H]1OC(=O)[C@H](C)[C@@H](O)[C@H](C)[C@@H](O[C@@H]2O[C@H](C)C[C@@H](N(C)C)[C@H]2OC(=O)CCCCOC(=O)[C@@]2(O)[C@H](C)CC3C4CCC5=CC(=O)C=C[C@]5(C)[C@@]4(F)[C@@H](O)C[C@@]32C)[C@](C)(O)C[C@@H](C)CN(C)[C@H](C)[C@@H](O)[C@]1(C)O (stereo partly drawn) and report it.
170

----------
Quantity: melting point

Recorded results for 2 compounds are shown here.
{"columns": ["Compound", "melting point"],
 "data": [
  ["CC[C@H]1OC(=O)[C@H](C)[C@@H](O[C@@H]2C[C@](C)(OC)[C@H](O)C(C)O2)[C@H](C)[C@@H](O[C@@H]2O[C@H](C)C[C@@H](N(C)C)[C@H]2O)[C@](C)(O)C[C@@H](C)CN(CCCNC(=O)[C@@]2(O)[C@H](C)CC3C4C[C@H](F)C5=CC(=O)C=C[C@]5(C)C4[C@@H](O)C[C@@]32C)[C@H](C)[C@@H](O)[C@]1(C)O (stereo partly drawn)", "175 to 178 °C"],
  ["CC[C@H]1OC(=O)[C@H](C)[C@@H](O[C@@H]2C[C@](C)(OC)[C@H](O)C(C)O2)[C@H](C)[C@@H](O[C@@H]2O[C@H](C)C[C@@H](N(C)C)[C@H]2OC(=O)CCCCOC(=O)[C@@]2(O)[C@H](C)CC3C4C[C@H](F)C5=CC(=O)C=C[C@]5(C)[C@@]4(F)[C@@H](O)C[C@@]32C)[C@](C)(O)C[C@@H](C)CN(C)[C@H](C)[C@@H](O)[C@]1(C)O (stereo partly drawn)", "159 to 160 °C"]
]}

Supply melting point value. Item: CC[C@H]1OC(=O)[C@H](C)[C@@H](O[C@@H]2C[C@](C)(OC)[C@H](O)C(C)O2)[C@H](C)[C@@H](O[C@@H]2O[C@H](C)C[C@@H](N(C)C)[C@H]2O)[C@](C)(O)C[C@@H](C)CN(CCCNC(=O)[C@@]2(O)[C@H](C)CC3C4C[C@H](F)C5=CC(=O)C=C[C@]5(C)[C@@]4(Cl)[C@@H](O)C[C@@]32C)[C@H](C)[C@@H](O)[C@]1(C)O (stereo partly drawn)
194 to 202 °C
